Assay: Wavelength vs. absorbance of near-infrared absorbing compositions (UV-Vis spectrophotometer)
Assay type: physicochemical
Conditions: 10 mg/mL in THF
λNIR (maximum absorption wavelength): recorded values
Supply the numeric figure in nm, leaving out any unit text.

molecule="O=C([O][Cu][O]C(=O)C(F)(F)F)C(F)(F)F [Comparative Example 1, reference compound]" unit_descriptor=nm observed_measurement=771
molecule="C=C(C)C(=O)OCCOP(=O)(O)[O][Cu][O]C(=O)C(F)(F)F [Example 5]" unit_descriptor=nm observed_measurement=814
molecule="C=C(C)C(=O)OCCOP(=O)(O)[O][Cu][O]P(=O)(O)OCCOC(=O)C(=C)C [Comparative Example 2, reference compound]" unit_descriptor=nm observed_measurement=826

Noted for CCOP(=O)(O)[O][Cu][O]C(=O)C(F)(F)F [Example 2] : its λNIR (maximum absorption wavelength) reads 794

The value of λNIR (maximum absorption wavelength) measured for the molecule Cc1ccc(S(=O)(=O)[O][Cu][O]C(=O)C(F)(F)F)cc1 [Example 6] turned out to be 825

# molecule O=C([O][Cu][O]P(=O)(Oc1ccccc1)Oc1ccccc1)C(F)(F)F [Example 4] ; its λNIR (maximum absorption wavelength) = 814

Reported λNIR (maximum absorption wavelength) ( CC(C)OP(=O)(O)[O][Cu][O]C(=O)C(F)(F)F [Example 3] ) = 794
